assay: beta-catenin nuclear localization change in HeLa – imaging, HeLa cells, immunofluorescence, high-content, primary screen (AID 1665); details: at 5 µM
Screen size: about 190,000 compounds; about 590 (0.31%) were called active.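 How the source made its calls: active means nuclear translocation activity above 50% at 5 µM, with a well cell count of 50 or more; inconclusive means wells under 50 cells across six images, flagged as toxic; inactive means the rest.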 The list comes from a sample in which actives are over-represented; it also holds close analogues and randomly drawn compounds.
Choose one outcome from this list and give only that: active, inactive

- CCOC(=O)CSC1=C(C#N)C(c2sccc2C)CC(=O)N1 (stereo unspecified): active
- CCC1=NN2C(=N)/C(=C/c3cc(C)n(-c4ccccc4)c3C)C(=O)N=C2S1: inactive
- Cc1ccc2c(C)c(C(=O)N3CCC(N4CCC(C(=O)NC5CC5)CC4)CC3)oc2c1: inactive

[in] What outcome does the record of this test show for CCc1cccc(CC)c1NC(=S)Nc1ccc2cn[nH]c2c1 ?
[out] inactive

[in] Status in this test for Cc1cc(=O)[nH]c(N/N=C/c2ccc3c(c2)OCCO3)n1 ?
[out] inactive

[in] // param item: O=C(N/N=C/c1ccc([N+](=O)[O-])cc1)c1c[nH]c2ccccc12 ; yields the recorded call
[out] inactive

[in] Give the logged outcome of this assay for the following compound: C=CCOC(=O)C1=C(C)NC(SCC(=O)OCC)=C(C#N)C1c1ccc(C)cc1 (stereo unspecified)
[out] inactive

[in] Just curious, what result did O=C(NCC1CCCO1)c1cc(-c2ccccc2)nc2ccccc12 (stereo unspecified) get here?
[out] inactive

[in] Hi, do you know how COc1ccc(Nc2oc(-c3ccccc3Cl)nc2C#N)cc1 came out in this test?
[out] active

[in] Field: outcome | Entry: Cc1c(C(=O)N/N=C/c2ccccc2)[nH]c2c([N+](=O)[O-])cccc12
[out] active

[in] Outcome logged for COc1ccc(Nc2nc(Cl)nc(NCc3ccco3)n2)cc1 in this assay:
[out] inactive

----------
assay: beta-catenin nuclear localization change in HeLa – imaging, HeLa cells, immunofluorescence, high-content, primary screen (AID 1665); details: at 5 µM
Among all 190,000 compounds or so, about 590 (0.31%) were called active.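 Rule for the calls: active = nuclear translocation activity above 50% at 5 µM, with a well cell count of 50 or more; inconclusive = wells under 50 cells across six images, flagged as toxic; inactive = the rest.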 The full list was thinned out, with actives kept by preference.
Field 'call' accepts t = active, f = inactive

* Cc1ccc(/C=N/NC(=S)NC2CCCCC2)o1 | f

With those in mind, consider the next compound.
[in] Field: outcome | Entry: COc1ccc(C(CC(=O)N2CCN(c3ccccc3)CC2)c2c(O)cc(OC)cc2OC)cc1 (stereo unspecified)
[out] f

----------
experiment: beta-catenin nuclear localization change in HeLa – imaging, HeLa cells, immunofluorescence, high-content, primary screen (AID 1665); conditions: at 5 µM; HeLa beta-catenin nuclear translocation, measured here: cell count, cytotoxicity flag
About 590 (0.31%) of roughly 190,000 compounds were called active. For the sample, actives were picked, then their nearest neighbours and some compounds at random.
Listed next: entries and their corresponding cell count.
Reply with just the number (in cells).

- O=C(O)/C=C/c1ccc2c(c1)OCCO2: 1430
- C=CC1C(OC2OC(CO)C(O)C(O)C2O)OC=C(C(=O)OC)C1CC1CC(=O)CC(CC(=O)CCc2ccc(O)cc2)O1 (stereo not drawn): 387
- COc1cc2nc(Cl)nc(NCCO)c2cc1OC: 1310
- CN(NC(=O)c1ccccc1F)c1nc(C(F)(F)F)nc2ccccc12: 103
- Cc1ccc(CCC(=O)Nc2ncc(Cc3cc(Cl)ccc3Cl)s2)o1: 142
- COc1ccc(OCC(=O)NNC(=O)c2cccc(C)c2)cc1: 1060

[in] Specify cell count for COc1ccc(C(=O)NN(C)c2nc(-c3ccccc3)cc(C)c2S(C)(=O)=O)cc1 and stop.
[out] 1220

[in] Supply reported cell count belonging to this molecule: CCOc1ccccc1N1CN(Cc2ccccc2)CNC1=S
[out] 1340

[in] For the molecule CN(NC(=O)c1ccccc1)c1nc2ccccc2nc1C(F)(F)F , report cell count.
[out] 965
